Entries and their measured DC50 follow.
Molecular target: Nanoluciferase-BRD9 fusion protein (3×FLAG-NLuc-BRD9) in SYO-1 cells (Homo sapiens)
Construct: expressed in transfected cells; host or cells: SYO-1
Assay: SYO1 BRD9 NanoLuc Degradation Assay
Assay type: cell-based
Conditions: 6 hours; SYO-1 cells expressing 3×FLAG-NLuc-BRD9; top dose 1 μM; read-out: SYO1 BRD9-NanoLuc degradation IC50

Consider the reported DC50 for these compounds:
COMPOUND: COc1cc(-c2cn(C)c(=O)c3cc(NCCOCCOCCNc4cccc5c4C(=O)N(C4CCC(=O)NC4=O)C5=O)ncc23)cc(OC)c1CN(C)C (centres unmarked)
DC50: ≥ 0.01 µM
--
COMPOUND: COc1cc(-c2cn(C)c(=O)c3cnc(N(C)C)cc23)cc(OC)c1CN1CC(S(=O)(=O)NCCN2CCN(c3ccc4c(c3)C(=O)N(C3CCC(=O)NC3=O)C4=O)CC2)C1 (centres unmarked)
DC50: < 0.01 µM
--
COMPOUND: COc1cc(-c2cn(C)c(=O)c3cnc(N(C)C)cc23)cc(OC)c1CN1CCC2(CC1)CN(C(=O)CCCOc1cccc3c1C(=O)N(C1CCC(=O)NC1=O)C3=O)CCO2 (centres unmarked)
DC50: < 0.01 µM
--
COMPOUND: CNc1cc2c(=O)n(C)cc(-c3cc(OC)c(CN4CCC(CCN5CCN(c6ccc7c(c6)C(=O)N(C6CCC(=O)NC6=O)C7=O)CC5)CC4)c(OC)c3)c2cn1 (centres unmarked)
DC50: < 0.01 µM

Query string: Item COc1cc(-c2cn(C)c(=O)c3cnc(NCCOCCOCCNc4cccc5c4C(=O)N(C4CCC(=O)NC4=O)C5=O)cc23)cc(OC)c1CN(C)C (centres unmarked) has what recorded DC50?
Result string: ≥ 0.01 µM

----------
Biological target: Nanoluciferase-BRD9 fusion protein (3×FLAG-NLuc-BRD9) in SYO-1 cells (Homo sapiens, UniProt Q9H8M2)
Construct: expressed in transfected cells; host or cells: SYO-1
Sequence (Q9H8M2 whole entry, the tested form may be a part): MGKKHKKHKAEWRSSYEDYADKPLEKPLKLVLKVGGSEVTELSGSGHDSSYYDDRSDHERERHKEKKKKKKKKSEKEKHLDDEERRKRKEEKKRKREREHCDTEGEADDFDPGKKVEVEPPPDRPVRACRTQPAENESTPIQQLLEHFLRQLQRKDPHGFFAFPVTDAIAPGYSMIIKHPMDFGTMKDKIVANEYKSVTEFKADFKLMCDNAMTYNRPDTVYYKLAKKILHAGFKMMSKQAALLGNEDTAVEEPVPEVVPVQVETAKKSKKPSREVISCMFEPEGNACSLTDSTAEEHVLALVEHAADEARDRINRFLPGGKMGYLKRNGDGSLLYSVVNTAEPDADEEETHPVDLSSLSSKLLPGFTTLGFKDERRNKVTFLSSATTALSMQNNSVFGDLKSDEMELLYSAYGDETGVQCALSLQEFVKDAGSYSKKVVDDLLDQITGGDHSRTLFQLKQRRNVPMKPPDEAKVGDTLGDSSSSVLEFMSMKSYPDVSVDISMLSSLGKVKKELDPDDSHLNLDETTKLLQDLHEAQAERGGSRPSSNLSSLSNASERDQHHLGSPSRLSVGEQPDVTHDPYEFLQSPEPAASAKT
Test: SYO1 BRD9 NanoLuc Degradation Assay
Assay type: cell-based
Settings: 6 hours; SYO-1 cells expressing 3×FLAG-NLuc-BRD9; top dose 1 μM; read-out: SYO1 BRD9-NanoLuc degradation IC50
Experimental: Procedure: A stable SYO-1 cell line expressing 3×FLAG-NLuc-BRD9 was generated. On day 0 cells were seeded in 30 μL media into each well of 384-well cell culture plates. The seeding density was 8000 cells/well. […] Nanoluciferase activity was measured by adding 15 μL of freshly prepared Nano-Glo Luciferase Assay Reagent (Promega N1130), shaking the plates for 10 minutes and reading the bioluminescence using an EnVision reader. […]
Each entry below carries its reported DC50.

MOLECULE: COc1cc(-c2cn(C)c(=O)c3cc(NCC(=O)NCCCCCOc4cccc5c4C(=O)N(C4CCC(=O)NC4=O)C5=O)ncc23)cc(OC)c1CN(C)C (centres unmarked)
RECORDED METRIC: DC50
MEASURED VALUE: ≥ 10 nM
--
MOLECULE: COc1cc(-c2cn(C)c(=O)c3cc(NCCCCCOc4cccc5c4C(=O)N(C4CCC(=O)NC4=O)C5=O)ncc23)c(OC)cc1CN(C)C (centres unmarked)
RECORDED METRIC: DC50
MEASURED VALUE: ≥ 100 nM
--
MOLECULE: COc1cc(-c2cn(C)c(=O)c3cnc(N(C)C)cc23)cc(OC)c1CN1CCC2(CC1)CN(C(=O)CCCCOc1ccc3c(c1)C(=O)N(C1CCC(=O)NC1=O)C3=O)CCO2 (centres unmarked)
RECORDED METRIC: DC50
MEASURED VALUE: < 10 nM

Query string: Look up DC50: COc1cc(-c2cn(C)c(=O)c3cnc(N(C)C)cc23)cc(OC)c1CN1CC(C(=O)NCCCCCOc2cccc3c2C(=O)N(C2CCC(=O)NC2=O)C3=O)C1 (centres unmarked) [Compound D1]
Result string: < 10 nM

Query string: For CNc1cc2c(=O)n(C)cc(-c3cc(OC)c(CN4CCC5(CC4)CN(C(=O)CCCCOc4cccc6c4C(=O)N(C4CCC(=O)NC4=O)C6=O)CCO5)c(OC)c3)c2cn1 (centres unmarked) , what is its reported DC50?
Result string: < 10 nM

----------
Target: Nanoluciferase-BRD9 fusion protein (3×FLAG-NLuc-BRD9) in SYO-1 cells (Homo sapiens, UniProt Q9H8M2)
Construct: expressed in transfected cells; host or cells: SYO-1
Assay: SYO1 BRD9 NanoLuc Degradation Assay
Type: cell-based
Conditions: Table 6B; SYO-1 cells expressing 3×FLAG-NLuc-BRD9, 6 hours incubation, 1 μM top dose; read-out: SYO1 BRD9-NanoLuc degradation IC50
RECORDED METRIC: DC50

See these solved cases before continuing.
COMPOUND: COc1cc(-c2cn(C)c(=O)c3cnc(N(C)C)cc23)cc(OC)c1CN1CC(CCN2CCN(c3ccc4c(c3)C(=O)N(C3CCC(=O)NC3=O)C4=O)CC2)C1 (stereo not drawn)
MEASURED VALUE: ≥ 1 µM

COMPOUND: COc1cc(-c2cn(C3CC3)c(=O)c3cnc(N4CCC4)cc23)cc(OC)c1CN1CCC(N2CCN(c3ccc4c(c3)CN(C3CCC(=O)NC3=O)C4=O)CC2)CC1 (stereo not drawn)
MEASURED VALUE: < 0.01 µM

COMPOUND: COc1cc(-c2cn(C)c(=O)c3cnc(N4CCC4)cc23)cc(OC)c1CN1CCC2(CC1)CN(c1ccc3c(c1)C(=O)N(C1CCC(=O)NC1=O)C3)C2 (stereo not drawn)
MEASURED VALUE: < 0.01 µM

COMPOUND: COc1cc(-c2cn(C)c(=O)c3cnc(N(C)C)cc23)cc(OC)c1CN1CCC(CN2CCC3(CC2)CC(Oc2cc4c(cc2F)C(=O)N(C2CCC(=O)NC2=O)C4=O)C3)CC1 (stereo not drawn)
MEASURED VALUE: < 0.01 µM

COMPOUND: COc1cc(-c2cn(C)c(=O)c3cnc(N4CCC4)cc23)cc(OC)c1CN1CC(N2CCC(c3ccc4c(c3)C(=O)N(C3CCC(=O)NC3=O)C4)CC2)C1 (stereo not drawn)
MEASURED VALUE: ≥ 1 µM

Query string: Can you look up the measured DC50 of COc1cc(-c2cn(C)c(=O)c3cnc(N(C)C)cc23)cc(OC)c1CN1CC(CN2CCC3(CC2)CN(c2ccc4c(c2)C(=O)N(C2CCC(=O)NC2=O)C4)C3)C1 (stereo not drawn) for me?
Result string: < 0.01 µM

Query string: Tell me the measured DC50 of COc1cc(-c2cn(C)c(=O)c3cnc(N(C)C)cc23)cc(OC)c1CN1CCC2(CC1)CN(c1ccc3c(c1)C(=O)N(C1CCC(=O)NC1=O)C3)C2 (stereo not drawn) , please.
Result string: < 0.01 µM

Query string: Param item = COc1cc(-c2cn(C)c(=O)c3cnc(N(C)C)cc23)cc(OC)c1CN1CCC2(CC1)CC(N1CCN(c3ccc4c(c3)C(=O)N(C3CCC(=O)NC3=O)C4=O)CC1)C2 (stereo not drawn) ; retrieve measured DC50.
Result string: < 0.01 µM

Query string: Return reported DC50; argument: COc1cc(-c2cn(C)c(=O)c3cnc(N(C)C)cc23)cc(OC)c1CN1CC(C(C)(C)N2CCC3(CC2)CN(c2ccc4c(c2)C(=O)N(C2CCC(=O)NC2=O)C4=O)C3)C1 (stereo not drawn)
Result string: < 0.01 µM

Query string: Item COc1cc(-c2cn(C)c(=O)c3cnc(N(C)C)cc23)cc(OC)c1CN(C)C12CC(C(=O)NCCCCCOc3ccc4c(c3)C(=O)N(C3CCC(=O)NC3=O)C4=O)(C1)C2 (stereo not drawn) has what recorded DC50?
Result string: < 0.01 µM

Query string: Which measured DC50 value corresponds to COc1cc(-c2cn(C)c(=O)c3cnc(N(C)C)cc23)cc(OC)c1CN1CCC(CCN2CCN(c3ccc4c(c3)C(=O)N(C3CCC(=O)N(COC(=O)OC(C)C)C3=O)C4=O)CC2)CC1 (stereo not drawn) ?
Result string: < 0.01 µM

Query string: Look up DC50 for this compound: COc1cc(-c2cn(C)c(=O)c3cnc(N(C)C)cc23)cc(OC)c1CN1CC2(CC(N3Cc4cc5c(cc4C3)C(=O)N(C3CCC(=O)NC3=O)C5=O)C2)C1 (stereo not drawn)
Result string: < 0.01 µM

Query string: Returns the measured DC50 for the input compound. Input: COc1cc(-c2cn(C)c(=O)c3cnc(N(C)C)cc23)cc(OC)c1CN(C)CC12CC(C(=O)NCCCCCNc3ccc4c(c3)C(=O)N(C3CCC(=O)NC3=O)C4=O)(C1)C2 (stereo not drawn)
Result string: < 0.01 µM

Query string: For COc1cc(-c2cn(C)c(=O)c3cnc(N(C)C)cc23)cc(OC)c1CN1CC2(CCC(N3Cc4cc5c(cc4C3)C(=O)N(C3CCC(=O)NC3=O)C5=O)CC2)C1 (stereo not drawn) , what is its reported DC50?
Result string: 0.1 to 1 µM

Query string: Query (compound): COc1cc(-c2cn(C)c(=O)c3cnc(N(C)C)cc23)cc(OC)c1CN1CCC(C[N+]2(C)CCC3(CC2)CC(Oc2ccc4c(c2)C(=O)N(C2CCC(=O)NC2=O)C4=O)C3)CC1 (stereo not drawn) ; field requested: DC50
Result string: 0.01 to 0.1 µM

Query string: Sample COc1cc(-c2cn(C)c(=O)c3cnc(N(C)C)cc23)cc(OC)c1CN1CC(CN2CC3(CCN(c4ccc5c(c4)C(=O)N(C4CCC(=O)NC4=O)C5=O)C3)C2)C1 (stereo not drawn) — what was its DC50?
Result string: < 0.01 µM

Query string: Need DC50 of COc1cc(-c2cn(C)c(=O)c3cnc(N(C)C)cc23)cc(OC)c1CN1CC2(C1)CN(C(C)(C)C#Cc1ccc3c(c1)C(=O)N(C1CCC(=O)NC1=O)C3=O)C2 (stereo not drawn) , thanks.
Result string: < 0.01 µM

Query string: Which DC50 is reported for this compound? COc1cc(-c2cn(C)c(=O)c3cnc(N(C)C)cc23)cc(OC)c1CN1CCN(CC2CCN(c3ccc4c(c3)C(=O)N(C3CCC(=O)NC3=O)C4=O)CC2)CC1 (stereo not drawn)
Result string: < 0.01 µM

Query string: What value of DC50 has been recorded for this entry: COc1cc(-c2cn(C)c(=O)c3cnc(N(C)C)cc23)cc(OC)c1CN1CCN(C(C)COc2cccc3c2C(=O)N(C2CCC(=O)NC2=O)C3=O)CC1 (stereo not drawn)
Result string: < 0.01 µM

Query string: Param item = COc1cc(-c2cn(C)c(=O)c3cnc(N(C)C)cc23)cc(OC)c1CN1CCC2(CC1)CC(Oc1ccc3c(c1)C(=O)N(C1CCC(=O)NC1=O)C3=O)C2 (stereo not drawn) ; retrieve measured DC50.
Result string: < 0.01 µM

Query string: Endpoint output: DC50 of COc1cc(-c2cn(C)c(=O)c3cnc(N(C)C)cc23)cc(OC)c1CN1CCC(CN2CCC3(CC2)CC(Oc2ccc4c(c2)C(=O)N(C2CCC(=O)NC2=O)C4)C3)CC1 (stereo not drawn) . Value?
Result string: < 0.01 µM
